Source listed as ChEMBL document CHEMBL3992510.

Assay: Drug level in mouse plasma at 50 mg/kg, po administered as single dose via gavage measured at 8 hrs post dose by liquid chromatography/tandem mass spectrometric analysis
Type: ADME, organism-based
quantity.kind: concentration at 8 h (µM)

* O=C(Nc1ccc2sc(-c3ccc(F)c(F)c3)nc2c1)N1CC[C@H](F)C1 | 8.97

---

Tested on: Liver
Assay: Half life in human liver microsomes at 1.5 uM in presence of NADPH by liquid chromatography/tandem mass spectrometric analysis
Type: ADME, microsome
quantity.kind: t1/2

- O=C(Nc1ccc2sc(-c3ccc(F)c(F)c3)nc2c1)N1CCC(F)C1 (stereo not drawn): > 60 min
- CC1CCCCN1C(=O)NCCc1nc(-c2cccc(F)c2)cs1 (stereo not drawn): < 5 min
- O=C(NCCc1nc(-c2ccc(F)cc2F)cs1)N1CCCCC1: < 5 min
